- tested.target: furin, P09958;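 also: purified furin at 1:10 enzyme:substrate in 50 mM HEPES pH 7.5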
- Sequence (P09958 whole entry): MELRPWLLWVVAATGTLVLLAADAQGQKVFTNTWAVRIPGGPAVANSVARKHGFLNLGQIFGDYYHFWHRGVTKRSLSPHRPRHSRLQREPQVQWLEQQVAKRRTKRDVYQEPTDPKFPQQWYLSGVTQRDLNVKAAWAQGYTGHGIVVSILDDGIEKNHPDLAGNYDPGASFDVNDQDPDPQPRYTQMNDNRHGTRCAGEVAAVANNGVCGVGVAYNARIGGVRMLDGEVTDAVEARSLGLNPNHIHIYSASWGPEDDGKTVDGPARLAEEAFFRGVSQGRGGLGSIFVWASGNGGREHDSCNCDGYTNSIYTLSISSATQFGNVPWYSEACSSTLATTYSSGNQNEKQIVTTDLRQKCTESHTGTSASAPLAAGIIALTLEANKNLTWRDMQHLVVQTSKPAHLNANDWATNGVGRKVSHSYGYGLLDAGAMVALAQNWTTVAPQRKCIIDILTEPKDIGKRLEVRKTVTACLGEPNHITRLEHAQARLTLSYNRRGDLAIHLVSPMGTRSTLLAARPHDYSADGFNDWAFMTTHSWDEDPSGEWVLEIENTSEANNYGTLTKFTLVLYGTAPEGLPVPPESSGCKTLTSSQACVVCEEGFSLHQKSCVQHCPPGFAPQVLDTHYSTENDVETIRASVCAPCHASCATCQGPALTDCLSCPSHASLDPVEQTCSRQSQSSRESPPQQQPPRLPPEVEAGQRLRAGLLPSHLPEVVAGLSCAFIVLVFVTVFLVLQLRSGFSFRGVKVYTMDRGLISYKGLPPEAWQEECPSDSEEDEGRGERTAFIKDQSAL
- protocol.details: furin cleavage Z-score vs untreated control; higher = more cleavage, active = 3.5 or more, inactive = 1 or less, 8 variable residues between constant flanks
- condition.summary: 30 min
The other results are listed elsewhere or left out. No count for the full screen is at hand.
Reported furin cleavage Z-score by item:
No unit in the answer, only the number.

Answered examples (5):
CAFTAGYSGGAGNASASA [HC1646] = -0.88
CARPKKRAETAGNASASA [FS-1760] = 0.187
CARTGRSIVYAGNASASA [FS-2465] = 6.39
CACGSGPWITAGNASASA [HC459] = -1.44
CARQKRAVATAGNASASA [FS-2360] = 7.99

GET /value?item= CAYQATVCARAGNASASA [HC955] &field=furin cleavage Z-score returns -1.24

// furin cleavage Z-score lookup, sequence = CARQKRQLWDAGNASASA [FS-2291] , result: 8.7
